# Measurement Notes: Plasma stability, human plasma;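 further: plasma half-life T1/2 in minutes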
# Format: in vitro ADME, Humans
# Study Conditions: 37° C.
Assign YES whenever half-life at 2 µM does not fall below 5 min; assign NO whenever it does.

Example entries begin here.
C[C@@H]1CCN(C(=O)CC#N)C[C@@H]1N(C)c1ncnc2c1ccn2C(=O)N(C)CCOC(=O)C1CCN(C)CC1 = YES
CC(=O)OCCN(C)C(=O)n1ccc2c(N(C)[C@H]3CN(C(=O)CC#N)CC[C@H]3C)ncnc21 = YES
CCCCC(=O)OCCN(C)C(=O)n1ccc2c(N(C)[C@H]3CN(C(=O)CC#N)CC[C@H]3C)ncnc21 = NO
CC(C)C(=O)OCCN(C)C(=O)n1ccc2c(N(C)[C@H]3CN(C(=O)CC#N)CC[C@H]3C)ncnc21 = NO
C[C@@H]1CCN(C(=O)CC#N)C[C@@H]1N(C)c1ncnc2c1ccn2C(=O)N(C)CCOC(=O)C1CCCCC1 = NO

Query: Dear colleague, could you confirm whether COCCOCC(=O)OCCN(C)C(=O)n1ccc2c(N(C)[C@H]3CN(C(=O)CC#N)CC[C@H]3C)ncnc21 has half-life at 2 µM at or above 5 min?
Response: NO

Query: Dear colleague, could you confirm whether C[C@@H]1CCN(C(=O)CC#N)C[C@@H]1N(C)c1ncnc2c1ccn2C(=O)N(C)CCOC(=O)c1ccncc1 has half-life at 2 µM at or above 5 min?
Response: NO

Query: Dear colleague, could you confirm whether C[C@@H]1CCN(C(=O)CC#N)C[C@@H]1N(C)c1ncnc2c1ccn2C(=O)N(C)CCOC(=O)C(C)(C)C has half-life at 2 µM at or above 5 min?
Response: YES
